- System: K562
- test-name: Cytotoxicity against multidrug-resistant human K562 cells after 48 hrs by MTT assay
- Type: functional, cell-based
- test-parameters: K562, 48 h
reported-metric: IC50

Which IC50 reading was recorded for the compound O=S(=O)(Oc1ccc(Cl)cc1)c1ccc2[nH]c3ccncc3c2c1 ? 13.9 µM

Which IC50 reading was recorded for the compound CCn1c2ccncc2c2cc(NC(=O)c3ccccc3)ccc21 ? 10.6 µM

Which IC50 reading was recorded for the compound O=S(=O)(Oc1ccccc1)c1ccc2[nH]c3ccncc3c2c1 ? 48.9 µM

Which IC50 reading was recorded for the compound COc1ccccc1OS(=O)(=O)c1ccc2[nH]c3ccncc3c2c1 ? 15.3 µM

Which IC50 reading was recorded for the compound O=[N+]([O-])c1ccc(OS(=O)(=O)c2ccc3[nH]c4ccncc4c3c2)cc1 ? 8.34 µM

Which IC50 reading was recorded for the compound CCn1c2ccncc2c2cc(S(=O)(=O)Nc3ccncc3)ccc21 ? > 100 µM

Which IC50 reading was recorded for the compound CCn1c2ccncc2c2cc(NC(=O)c3ccccc3Cl)ccc21 ? 22.9 µM

Which IC50 reading was recorded for the compound COc1ccc(OS(=O)(=O)c2ccc3[nH]c4ccncc4c3c2)cc1 ? 5.7 µM
